Data origin: PubChem BioAssay (NCI)

For each record, write down the corresponding GI50.
Test system: MDA-MB-435

Q: Retrieve GI50 measured for Cn1c(NCC(O)CN2CCCC2)cc(=O)n(C)c1=O (stereo not drawn) and print it.
A: > 100000 nM

Q: Retrieve GI50 measured for Clc1cc(Cl)cc(N2N=C(c3cccc(Nc4ccncc4)c3)CC2c2ccc3c(c2)OCO3)c1 (stereo not drawn) and print it.
A: 1620 nM

Q: Retrieve GI50 measured for c1ccc2cc(C[n+]3ccn(CCCCCCCCCCn4cc[n+](Cc5ccc6ccccc6c5)c4)c3)ccc2c1 and print it.
A: 819 nM

====

System: SF-539 CNS
assay.details: NCI tumour cell line growth inhibition, 48 h; in the data active = GI50 below about 0.43 µM; inactive = the rest
Write down one outcome, taken from 1 for active, -1 for inactive

Q: Assay result, entry CCOc1cccc(-c2nc(N)nc(Nc3ccccc3SSc3ccccc3Nc3nc(N)nc(-c4cccc(OCC)c4)n3)n2)c1 — outcome?
A: -1

Q: Assay result, entry COc1cc(C(=O)N/N=C/c2ccc(N(C)C)cc2)cc(OC)c1OC — outcome?
A: 1

Q: Assay result, entry Clc1cc(Cl)cc(N2N=C(c3cccc(Nc4ccncc4)c3)CC2c2ccc3c(c2)OCO3)c1 (centres undefined) — outcome?
A: -1

Q: Assay result, entry CC(=O)N1N=C2/C(=C/c3ccc(Cl)cc3)CC(C)CC2C1c1ccc(Cl)cc1 (centres undefined) — outcome?
A: -1

Q: Assay result, entry CCN1Cc2nc3sc(C)c(C)c3c(=O)n2C=C1C — outcome?
A: -1

Q: Assay result, entry CCCCCCCCCCCCCCCCC(=O)O.CCCCCCCCCCCCCCCCCC(=O)O.CCCCCCCCCCCCCCCCCC(=O)O.CCCCCCCCCCCCCCCCCC(=O)O.CCCCCCCCCCCCCCCCCC(=O)O.CO[CH-]OC12COC1CC(O)C1(C)C(O)C(OC(C)O)C3=C(C)C(OC(=O)C(O)C([NH-])c4ccccc4)CC(O)(C(OC(=O)c4ccccc4)C21)C3(C)C.[Cu+].[Zn].[Zn].[Zn].[Zn].[Zn] (centres undefined) — outcome?
A: 1

Q: Assay result, entry COc1cc([N+](=O)[O-])c(OC)cc1-c1nc2sc(Cl)cn2c1/C=N/NC1=NCCN1 — outcome?
A: 1

Q: Assay result, entry CCCCCCCCCCCCOC1C(CNC(=O)C2OC3OC(C)(C)OC3C2NC(=O)Nc2ccc(CC(=O)NC(Cc3ccccc3)C(=O)O)cc2)OC2OC(C)(C)OC21 (centres undefined) — outcome?
A: -1

Q: Assay result, entry COc1ccc(-n2ccnc2-c2cc(OC)c(OC)c(OC)c2)cc1 — outcome?
A: -1

====

Test system: RPMI-8226 leukemia
assay.details: NCI tumour cell line growth inhibition, 48 h; in the data active = GI50 below about 0.43 µM; inactive = the rest
Write down one outcome, taken from Y = active, N = inactive

Q: Assay result, entry O=S(=O)(/N=c1/scc(-c2ccccc2)n1-c1ccccc1)c1ccc(N2N=C3c4ccccc4CC3C2c2cccs2)cc1 (stereo not given) — outcome?
A: N

Q: Assay result, entry CCCCCCCCCCCCCCCCC(=O)O.CCCCCCCCCCCCCCCCCC(=O)O.CCCCCCCCCCCCCCCCCC(=O)O.CCCCCCCCCCCCCCCCCC(=O)O.CCCCCCCCCCCCCCCCCC(=O)O.CO[CH-]OC12COC1CC(O)C1(C)C(O)C(OC(C)O)C3=C(C)C(OC(=O)C(O)C([NH-])c4ccccc4)CC(O)(C(OC(=O)c4ccccc4)C21)C3(C)C.[Cu+].[Zn].[Zn].[Zn].[Zn].[Zn] (stereo not given) — outcome?
A: Y

Q: Assay result, entry CC(=O)Oc1ccc(/C(=C(\C)c2ccc(Cl)cc2)c2ccc(OCCN3CCCCC3)cc2)cc1 — outcome?
A: N

Q: Assay result, entry COc1ccc(-n2ccnc2-c2cc(OC)c(OC)c(OC)c2)cc1 — outcome?
A: N

Q: Assay result, entry O=c1oc2ccc(Br)cc2c(=O)n1-c1ccc(I)cc1F — outcome?
A: Y

====

Tested on: NCI/ADR-RES ovarian
assay.details: NCI tumour cell line growth inhibition, 48 h
measured.property: TGI

Q: Retrieve TGI measured for Cc1ccc(C)c(/C=C2\CN(C(=O)OC(C)(C)C)C/C(=C\c3cc(C)ccc3C)C2=O)c1 and print it.
A: > 100 µM

Q: Retrieve TGI measured for CCOC(=O)C(C(=S)SC)c1nn2c(=O)cc(C)nc2s1 (stereo not given) and print it.
A: 54.8 µM

Q: Retrieve TGI measured for C[C@@H](NC(=O)c1ccc(CNC(=O)/C=C/c2cccc(Oc3ccccc3)c2)cc1)c1ccccc1 and print it.
A: > 100 µM

Q: Retrieve TGI measured for COc1cc2c(cc1Nc1nc(Nc3cccc(F)c3C(N)=O)c3cc[nH]c3n1)N(C(=O)CN1CCN(C(C)C)CC1)CC2 and print it.
A: 13.5 µM

Q: Retrieve TGI measured for COc1cccc(N(CN2C(=O)CCC2C(=O)O)C(C)=O)c1 (stereo not given) and print it.
A: > 100 µM

====

System: HT29 colon
assay.details: NCI tumour cell line growth inhibition, 48 h
For each record, write down the corresponding TGI.

Q: Retrieve TGI measured for CCOC1Oc2ccccc2-c2nc(SC)ncc21 (stereo unspecified) and print it.
A: > 100 µM

Q: Retrieve TGI measured for Clc1ccc(OCc2nnc3n2N=C(c2ccc(Cl)cc2Cl)CS3)cc1 and print it.
A: 51.8 µM

Q: Retrieve TGI measured for O=C(O)CC(Sc1ccccc1)c1ccccc1 (stereo unspecified) and print it.
A: > 100 µM

Q: Retrieve TGI measured for O=C(OCc1ccccc1)N(CCCCN(CCCNCc1ccccc1)C(=O)OCc1ccccc1)CCCNCc1ccccc1 and print it.
A: 0.663 µM

Q: Retrieve TGI measured for CCCCCCCCn1ccc2cc(NC(=O)Cn3cc(CN4CCCCC4)nn3)ccc21 and print it.
A: 4.28 µM

Q: Retrieve TGI measured for Ic1cc2c(cc1C1SCCCS1)OCO2 and print it.
A: > 100 µM

Q: Retrieve TGI measured for Cc1ccc(S(=O)OCC23CC4CC(CC(C4)C2)C3)cc1 (stereo unspecified) and print it.
A: > 100 µM

Q: Retrieve TGI measured for NC12CCC(CC1=O)C2 (stereo unspecified) and print it.
A: > 100 µM

Q: Retrieve TGI measured for O=C(O)CCCc1ccc2ccccc2c1 and print it.
A: > 100 µM

Q: Retrieve TGI measured for COc1cc(C(=O)Nc2cc(OC)c3ccn(C)c3c2)cc2c1C[C@]1(C)CC[C@@H](O)C(C)(C)[C@H]1O2 and print it.
A: 13.8 µM

Q: Retrieve TGI measured for COc1ccc2nc3ccc(OC)cc3c(SCc3ccccc3)c2c1 and print it.
A: > 100 µM

====

System: OVCAR-5 ovarian
assay.details: NCI tumour cell line growth inhibition, 48 h
For each record, write down the corresponding GI50.

Q: Retrieve GI50 measured for COc1ccc(-n2ccnc2-c2cc(OC)c(OC)c(OC)c2)cc1 and print it.
A: 10.1 µM

Q: Retrieve GI50 measured for O=C1c2cccc(NCCN=Cc3ccccc3O)c2C(=O)c2c(NCCN=Cc3ccccc3O)cccc21 and print it.
A: 1.41 µM

Q: Retrieve GI50 measured for COC1=CC(c2ccc[nH]2)=N/C1=C\c1[nH]c(C)c(C(=O)CCCCC(=O)Oc2ccc3c(c2)CCC2C3CC[C@]3(C)[C@@H](O)CC[C@@H]23)c1C (some centres undefined) and print it.
A: > 100 µM

Q: Retrieve GI50 measured for O=S(=O)(/N=c1/scc(-c2ccccc2)n1-c1ccccc1)c1ccc(N2N=C3c4ccccc4CC3C2c2cccs2)cc1 (centres undefined) and print it.
A: 88.9 µM

Q: Retrieve GI50 measured for COc1cc([C@@H]2C[C@H]2c2cc(SC)n[nH]2)cc(OC)c1OC and print it.
A: 37.9 µM

Q: Retrieve GI50 measured for Cn1c(=O)c(Oc2ccc(F)cc2F)cc2cnc(NC3CCS(=O)(=O)CC3)nc21 and print it.
A: > 25 µM

Q: Retrieve GI50 measured for CC(=O)Oc1ccc(/C(=C(\C)c2ccc(Cl)cc2)c2ccc(OCCN3CCCCC3)cc2)cc1 and print it.
A: 2.72 µM

Q: Retrieve GI50 measured for Cn1c(/C=C/[N+](=O)[O-])cc2ccccc21 and print it.
A: 21.2 µM

Q: Retrieve GI50 measured for COc1cc(C(=O)Nc2cc(OC)c3ccn(C)c3c2)cc2c1C[C@]1(C)CC[C@@H](O)C(C)(C)[C@H]1O2 and print it.
A: 4.14 µM

====

System: 786-0 renal
assay.details: NCI tumour cell line growth inhibition, 48 h
For each record, write down the corresponding GI50.

Q: Retrieve GI50 measured for CC1(C)[C@@H](OC(=O)CCC(=O)O)CC[C@]2(C)[C@H]3C(=O)C=C4[C@@H]5C[C@@](C)(C(=O)O)CC[C@]5(C)CC[C@@]4(C)[C@]3(C)CC[C@@H]12 and print it.
A: 58800 nM

Q: Retrieve GI50 measured for CC(=O)Oc1ccc(/C(=C(\C)c2ccc(Cl)cc2)c2ccc(OCCN3CCCCC3)cc2)cc1 and print it.
A: 1590 nM

Q: Retrieve GI50 measured for O=C(Nc1ccccc1)c1cc(S(=O)(=O)Nc2nc3ccccc3o2)c(SCc2ccccc2)cc1Cl and print it.
A: 17300 nM

Q: Retrieve GI50 measured for N#C[Se]CCCNS(=O)(=O)C1CC2C=CC1C2 (stereo not drawn) and print it.
A: 997 nM

Q: Retrieve GI50 measured for CCCCCCCCC(=O)OCC(CS[As](C)C)OC(=O)CCCCCCCC (stereo not drawn) and print it.
A: 1160 nM

Q: Retrieve GI50 measured for Cn1c(=O)c(Oc2ccc(F)cc2F)cc2cnc(NC3CCS(=O)(=O)CC3)nc21 and print it.
A: > 25000 nM

Q: Retrieve GI50 measured for COC1=CC(c2ccc[nH]2)=N/C1=C\c1[nH]c(C)c(C(=O)CCCCC(=O)Oc2ccc3c(c2)CCC2C3CC[C@]3(C)[C@@H](O)CC[C@@H]23)c1C (stereo partly drawn) and print it.
A: 5640 nM

Q: Retrieve GI50 measured for COc1cc(/C=C/C(=O)N2CCN(C(=O)c3cc(OC)c(OC)c(OC)c3)CC2)ccc1OCCCOc1cc2c(cc1OC)C(=O)N1CCC[C@H]1C=N2 and print it.
A: 491 nM
